- Tested on: T-cell
- protocol_details: CD25 cell surface staining on T-cells stimulated with anti-CD3 antibody alone (Biological Example 2)
- Assay type: cell-based
- stated_conditions: 1 μM compound, primary human total T-cells, baseline = anti-CD3/anti-CD28 stimulated cells without inhibitor, read-out: CD25 staining, Anti-CD3 stimulation, fold change over baseline
Readings of fold induction at 1 µM for the listed compounds

{"compound": "C[C@H](Cc1nncn1C)c1cccc(N2Cc3c(cc(CN4CC(F)(F)C4)cc3C(F)(F)F)C2=O)c1", "fold induction at 1 µM": "> 1"}
{"compound": "Cn1cnnc1CC1(c2cccc(N3Cc4c(cc(CN5C[C@@H](F)[C@@H](F)C5)cc4C(F)(F)F)C3=O)c2)COC1", "fold induction at 1 µM": "0.801 to 1"}
{"compound": "Cn1cnnc1CC1(c2cccc(N3Cc4c(cc(CN5C[C@H]6C[C@H]6C5)cc4C(F)(F)F)C3=O)c2)COC1", "fold induction at 1 µM": "> 1"}
{"compound": "CN(c1cc2c(c(C(F)(F)F)c1)CN(c1cccc([C@@](C)(F)C(F)(F)c3nncn3C)c1)C2=O)[C@@H]1CNC[C@@H]1F", "fold induction at 1 µM": "0.601 to 0.8"}
{"compound": "Cc1cc(C(=O)Nc2cccc(C3(Cc4nocc4C)COC3)c2)nc(C2CC2)n1", "fold induction at 1 µM": "> 1"}
{"compound": "Cn1cnnc1CC(C)(C)c1cccc(NC(=O)c2cc(C(=O)N3CC[C@H](O)C3)cc(C(F)(F)F)n2)c1", "fold induction at 1 µM": "0.801 to 1"}
{"compound": "Cn1cnnc1CC1(c2cccc(N3Cc4c(cc(OC5CC5)cc4C(F)(F)F)C3=O)c2)COC1", "fold induction at 1 µM": "> 1"}

====

- study_system: Cbl-b (Homo sapiens, UniProt Q13191)
- Sequence (Q13191 36-427): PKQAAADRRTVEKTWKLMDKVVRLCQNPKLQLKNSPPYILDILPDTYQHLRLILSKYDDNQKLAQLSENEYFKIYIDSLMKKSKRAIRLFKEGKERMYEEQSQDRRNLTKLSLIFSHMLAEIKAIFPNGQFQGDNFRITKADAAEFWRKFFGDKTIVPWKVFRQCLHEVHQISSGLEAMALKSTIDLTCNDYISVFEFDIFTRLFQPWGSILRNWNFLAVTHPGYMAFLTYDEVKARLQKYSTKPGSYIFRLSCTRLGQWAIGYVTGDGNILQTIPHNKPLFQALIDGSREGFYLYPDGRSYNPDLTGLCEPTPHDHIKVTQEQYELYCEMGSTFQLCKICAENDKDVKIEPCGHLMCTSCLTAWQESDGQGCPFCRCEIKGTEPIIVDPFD
- protocol_details: Cbl-b activity assay (Cbl-b inhibition assay), TR-FRET of Cbl-b interaction with UbcH5B-Ub
- Assay type: biochemical
- stated_conditions: assay buffer with 100 mM NaCl, 60 nM Src kinase; read-out: Cbl-b activity IC50
pIC50: −log10 of the molar value.
# pIC50 per entry

{"compound": "C[C@H](Sc1nncn1C)c1cccc(NC(=O)c2cc(C(=O)N3CC[C@@H](N(C)C)C3)ccn2)c1", "study_system": "Cbl-b (Homo sapiens, UniProt Q13191)", "pIC50": "5.00 to 5.52"}
{"compound": "C[C@@H](Sc1nncn1C)c1ccc(F)c(NC(=O)c2cccc(C(F)(F)F)n2)c1 [Compound 95b]", "study_system": "Cbl-b (Homo sapiens, UniProt Q13191)", "pIC50": "5.00 to 5.52"}
{"compound": "Cn1cnnc1[C@H](F)[C@](C)(F)c1cccc(N2Cc3c(cc(C4CC4)cc3C(F)(F)F)C2=O)c1 [Compound 481a]", "study_system": "Cbl-b (Homo sapiens, UniProt Q13191)", "pIC50": "6.52 to 7.00"}
{"compound": "C[C@H](Cc1nncn1C)c1cc(OCC(F)F)nc(N2Cc3c(cccc3C(F)(F)F)C2=O)c1", "study_system": "Cbl-b (Homo sapiens, UniProt Q13191)", "pIC50": "> 7.00"}
{"compound": "Cn1cnnc1C(F)(F)[C@](C)(F)c1cccc(N2Cc3c(cc(CN4CC(F)C4)cc3C(F)(F)F)C2=O)c1", "study_system": "Cbl-b (Homo sapiens, UniProt Q13191)", "pIC50": "6.52 to 7.00"}
{"compound": "C[C@H]1CN(C)CCN1c1cc2c(c(C(F)(F)F)c1)CN(c1cccc([C@@](C)(F)C(F)(F)c3nncn3C)c1)C2=O", "study_system": "Cbl-b (Homo sapiens, UniProt Q13191)", "pIC50": "> 7.00"}
{"compound": "C[C@H](Sc1nncn1C)c1ccc(F)c(NC(=O)c2cccc(C(F)(F)F)n2)c1 [Compound 95a]", "study_system": "Cbl-b (Homo sapiens, UniProt Q13191)", "pIC50": "6.00 to 6.52"}
{"compound": "Cn1cnnc1CC1(c2cccc(N3Cc4c(cc(CN5Cc6ccccc6C5)cc4C(F)(F)F)C3=O)c2)COC1", "study_system": "Cbl-b (Homo sapiens, UniProt Q13191)", "pIC50": "> 7.00"}
{"compound": "C[C@H](Cc1nncn1C)c1cccc(NC(=O)c2cc(C(=O)N3C[C@@H](O)C[C@@H]3C)ccn2)c1", "study_system": "Cbl-b (Homo sapiens, UniProt Q13191)", "pIC50": "5.00 to 5.52"}
{"compound": "CC(Sc1nncn1C)c1cc(N)nc(N2Cc3c(cccc3C(F)(F)F)C2=O)c1 (stereo not drawn)", "study_system": "Cbl-b (Homo sapiens, UniProt Q13191)", "pIC50": "5.00 to 5.52"}
{"compound": "C[C@H](Cc1nncn1C)c1cccc(NC(=O)c2cc(C(=O)N3C[C@H](O)[C@@H](F)C3)ccn2)c1", "study_system": "Cbl-b (Homo sapiens, UniProt Q13191)", "pIC50": "5.52 to 6.00"}
{"compound": "Cn1cnnc1CC1(c2cccc(NC(=O)c3ccnc(C(F)(F)F)n3)c2)COC1", "study_system": "Cbl-b (Homo sapiens, UniProt Q13191)", "pIC50": "6.52 to 7.00"}
{"compound": "Cn1cnnc1CC1(c2cccc(N3Cc4c(cc(C(N5CCCC5)C(F)(F)F)cc4C(F)(F)F)C3=O)c2)COC1 (stereo not drawn)", "study_system": "Cbl-b (Homo sapiens, UniProt Q13191)", "pIC50": "> 7.00"}
{"compound": "C[C@H](Cc1nncn1C)c1cccc(N2Cc3c(cc(-n4cccn4)cc3C(F)(F)F)C2=O)c1", "study_system": "Cbl-b (Homo sapiens, UniProt Q13191)", "pIC50": "> 7.00"}
{"compound": "Cn1cnnc1C(F)(F)[C@](C)(F)c1cccc(NC(=O)c2nc3c(C(F)(F)F)cccc3[nH]2)c1", "study_system": "Cbl-b (Homo sapiens, UniProt Q13191)", "pIC50": "6.52 to 7.00"}

Values compiled from patent US20220324835A1.
